# log10(Kd) values compiled below
target system: HLA-A*03:01
measurement protocol: IEDB peptide-MHC binding, purified MHC/competitive/radioactivity; filed as Kd, often an IC50 or EC50 that approximates it; bounds were set here for any values at or beyond the usual limits of such assays
conditions used: source organism: Vaccinia virus WR
All values: base-10 log of Kd in µM.

{"chain": "PSIFLIITK", "log10(Kd)": -0.78}
{"chain": "PVYISQFSY", "log10(Kd)": 1.21}
{"chain": "GIFVDTMSIY", "log10(Kd)": 0.58}

Fill in: log10(Kd) of FLIVSLCPTK is ___
-0.66

Value lookup for log10(Kd); key = QIFNEDTSY
0.56

Field request: log10(Kd) | item: SVLCVKKFY
1.12

// log10(Kd) lookup, key: LSYIYSEIK
-1.59

Entry DILGVLTIK has what log10(Kd)?
-0.15

Endpoint output: log10(Kd) of LVYFSTQQNK . Value?
-3.01

Which log10(Kd) reading was recorded for the sequence ISSKQYPAGR ?
0.01

What does the data say about its log10(Kd)? Entry: EIMDKEQLLK
0.12

Fill in: log10(Kd) of FVSLVKKNKK is ___
0.67

Request the reported log10(Kd) associated with LIKFISDNK
-0.82

Query: log10(Kd); subject: LFDFVNFVK
-0.09

Form field: reported log10(Kd) of ILMKTANNY
-0.49

Need log10(Kd), item LSDENYLLK
-0.23

Any idea what log10(Kd) was measured for MLYQLLEAVY ?
0.16

Form field: reported log10(Kd) of SLENLDPDNK
0.47

* * *

target system: HLA-A*03:01
measurement protocol: IEDB peptide-MHC binding, purified MHC/competitive/radioactivity; filed as Kd, often an IC50 or EC50 that approximates it; bounds were set here for any values at or beyond the usual limits of such assays
conditions used: source organism: Mammarenavirus machupoense
pKd: −log10 of the molar value.
quantity kind: pKd

Form: Entry = DSVKSILKWH | System = HLA-A*03:01 | pKd = ____
≤ 4.15

* * *

target system: HLA-A*23:01
measurement protocol: IEDB peptide-MHC binding, purified MHC/competitive/radioactivity; filed as Kd, often an IC50 or EC50 that approximates it; bounds were set here for any values at or beyond the usual limits of such assays
conditions used: source organism: Mammarenavirus machupoense
quantity kind: Kd

{"chain": "EYFMCFKYLL", "Kd": "9.3 nM"}

Can you look up the measured Kd of GYVVSNFEGV for me?
≥ 70000 nM

* * *

target system: HLA-A*31:01
measurement protocol: IEDB peptide-MHC binding, purified MHC/direct/fluorescence; filed as Kd, often an IC50 or EC50 that approximates it; bounds were set here for any values at or beyond the usual limits of such assays
conditions used: source organism: Edwardsiella tarda
quantity kind: Kd

What measured Kd is associated with AFGLFWLVW on HLA-A*31:01?
≥ 20 µM

* * *

target system: HLA-A*02:17
measurement protocol: IEDB peptide-MHC binding, purified MHC/competitive/radioactivity; filed as Kd, often an IC50 or EC50 that approximates it; bounds were set here for any values at or beyond the usual limits of such assays
conditions used: source organism: Dengue virus 4 Philippines/H241/1956
quantity kind: Kd

Kd for YQGKTVWFV ?
201 nM

* * *

target system: HLA-A*26:01
measurement protocol: IEDB peptide-MHC binding, purified MHC/direct/fluorescence; filed as Kd, often an IC50 or EC50 that approximates it; bounds were set here for any values at or beyond the usual limits of such assays
conditions used: source organism: Vibrio vulnificus
pKd: −log10 of the molar value.
quantity kind: pKd

Item under review: QKDINTPGY . Reported pKd?
≤ 4.70

* * *

target system: HLA-A*02:01
measurement protocol: IEDB peptide-MHC binding, purified MHC/competitive/fluorescence; filed as Kd, often an IC50 or EC50 that approximates it; bounds were set here for any values at or beyond the usual limits of such assays
conditions used: source organism: Mus musculus
quantity kind: Kd

Which measured Kd value corresponds to YTFCGTIEY ?
≥ 20 µM

* * *

target system: HLA-B*45:06
measurement protocol: IEDB peptide-MHC binding, purified MHC/competitive/fluorescence; filed as Kd, often an IC50 or EC50 that approximates it; bounds were set here for any values at or beyond the usual limits of such assays
conditions used: source organism: Mycobacterium tuberculosis H37Rv
quantity kind: Kd

Recorded Kd for FPRIGTAVF , please?
≥ 5 µM

* * *

target system: HLA-A*31:01
measurement protocol: IEDB peptide-MHC binding, purified MHC/direct/fluorescence; filed as Kd, often an IC50 or EC50 that approximates it; bounds were set here for any values at or beyond the usual limits of such assays
conditions used: source organism: Giardia lamblia ATCC 50803
quantity kind: Kd

Please give the measured Kd for this sequence: DIIRAHPWF
≥ 20 µM

* * *

target system: HLA-B*39:01
measurement protocol: IEDB peptide-MHC binding, purified MHC/competitive/fluorescence; filed as Kd, often an IC50 or EC50 that approximates it; bounds were set here for any values at or beyond the usual limits of such assays
conditions used: source organism: Entamoeba histolytica HM-1:IMSS
quantity kind: Kd (nM)
Write down the numeric answer in nM and omit the unit.

Report Kd for NPAACSYMV please.
232

* * *

target system: HLA-A*02:19
measurement protocol: IEDB peptide-MHC binding, purified MHC/direct/fluorescence; filed as Kd, often an IC50 or EC50 that approximates it; bounds were set here for any values at or beyond the usual limits of such assays
conditions used: source organism: Listeria monocytogenes serotype 4b str. H7858
quantity kind: Kd

// query Kd value for entry AALEGLSGF
≥ 20 µM

* * *

Quick reference for pKd among some sequences
target system: HLA-B*18:01
measurement protocol: IEDB peptide-MHC binding, purified MHC/direct/fluorescence; filed as Kd, often an IC50 or EC50 that approximates it; bounds were set here for any values at or beyond the usual limits of such assays
conditions used: source organism: Marburg virus - Musoke, Kenya, 1980
pKd: −log10 of the molar value.

{"chain": "QGKQHLHSL", "target system": "HLA-B*18:01", "recorded value": "≤ 4.70"}

Would you kindly look at the next entry?
I am curious: what pKd value has been reported for THYSGNIVH ?
≤ 4.70

* * *

target system: HLA-B*07:02
measurement protocol: IEDB peptide-MHC binding, purified MHC/direct/fluorescence; filed as Kd, often an IC50 or EC50 that approximates it; bounds were set here for any values at or beyond the usual limits of such assays
conditions used: source organism: Reston ebolavirus - Reston
pKd: −log10 of the molar value.
quantity kind: pKd

// lookup pKd | system=HLA-B*07:02 | key= KHDFIDNPL
≤ 4.70

* * *

target system: HLA-A*01:01
measurement protocol: IEDB peptide-MHC binding, purified MHC/direct/fluorescence; filed as Kd, often an IC50 or EC50 that approximates it; bounds were set here for any values at or beyond the usual limits of such assays
conditions used: source organism: Camelpox virus CMS
quantity kind: Kd

Test system HLA-A*01:01; read-out Kd; what value for WQFAIHYSF ?
≥ 20 µM

* * *

target system: HLA-A*02:06
measurement protocol: IEDB peptide-MHC binding, purified MHC/competitive/radioactivity; filed as Kd, often an IC50 or EC50 that approximates it; bounds were set here for any values at or beyond the usual limits of such assays
conditions used: source organism: Hepacivirus hominis
quantity kind: Kd

Which measured Kd belongs to HSKKKCDDL , tested on HLA-A*02:06?
≥ 77.1 µM

* * *

target system: HLA-B*27:05
measurement protocol: IEDB peptide-MHC binding, purified MHC/direct/fluorescence; filed as Kd, often an IC50 or EC50 that approximates it; bounds were set here for any values at or beyond the usual limits of such assays
conditions used: source organism: Salmonella enterica subsp. enterica serovar Typhi
quantity kind: Kd (nM)
Answer with a number only, understood to be in nM.

// Kd lookup, key: RRRQWASCM
77.4

* * *

target system: HLA-A*02:03
measurement protocol: IEDB peptide-MHC binding, purified MHC/direct/fluorescence; filed as Kd, often an IC50 or EC50 that approximates it; bounds were set here for any values at or beyond the usual limits of such assays
conditions used: source organism: Vibrio cholerae V52
pKd: −log10 of the molar value.
quantity kind: pKd

Reported pKd, sequence LPYPVLLKI : ____
≤ 4.70

* * *

target system: HLA-C*03:03
measurement protocol: IEDB peptide-MHC binding, purified MHC/direct/fluorescence; filed as Kd, often an IC50 or EC50 that approximates it; bounds were set here for any values at or beyond the usual limits of such assays
conditions used: source organism: Camelpox virus M-96
quantity kind: Kd (nM)
Only the number, expressed in nM, is required.

# returns recorded Kd (system: HLA-C*03:03) for LMDENTYAM
592

* * *

target system: HLA-B*45:01
measurement protocol: IEDB peptide-MHC binding, purified MHC/competitive/radioactivity; filed as Kd, often an IC50 or EC50 that approximates it; bounds were set here for any values at or beyond the usual limits of such assays
conditions used: source organism: Mammarenavirus brazilense
quantity kind: pKd
Please note pKd is a logarithmic value: minus log10 of concentration in mol/L. Answer with that number alone.

Item EDQGNPIVL has what recorded pKd?
4.83
